# study target: Der-f allergens (Dermatophagoides farinae, UniProt P16311)
# Construct: Dust is collected from Hoover™ vacuum cleaner bags and passed through a series of sieves down to 63 microns; from tissue; host or cells: house dust from vacuum cleaner bags, sieved to 63 microns
# Format: biochemical
Where a name gives a salt, the structure may show the parent alone.
Would you kindly list Ratio of remaining active allergen after Deactivant/Tannic Acid Treatment for each of these compounds?
Give bare numbers.

1. Cc1ccc(C(C)C)c(O)c1 :: 0.523

Working through the 2 compounds below one at a time, give Ratio of remaining active allergen after Deactivant/Tannic Acid Treatment for each.
1. O=C1C=CC(=O)O1 [Maleic anhydride, maleic anhydride]
2. CCCOCC(C)O (centres unmarked)

Response:
0.875
2.194

Working through the 2 compounds below one at a time, give Ratio of remaining active allergen after Deactivant/Tannic Acid Treatment for each.
1. CCCCCCCCCCCCCCCC[N+](C)(C)C.[Cl-] [hexadecyltrimethylammonium chloride]
2. O=C1c2ccccc2C(=O)c2ccccc21 [Anthraquinone sodium salt, the sodium salt of anthraquinone]

Response:
2.264
0.765

###

# study target: Der-f allergens (Dermatophagoides farinae)
# Construct: Dust is collected from Hoover™ vacuum cleaner bags and passed through a series of sieves down to 63 microns; from tissue; host or cells: house dust from vacuum cleaner bags, sieved to 63 microns
# Type: biochemical
# particulars: Der-f; compared with vacuuming only, no deactivant; 2% deactivant (AgCl composite 0.05%, immobilised tannic acid 1%, hinokitol 0.5%)
Dear colleague, classification is by Amount of active Allergen remaining after deactivant treatment, with ranges listed here: label 0 = under 1000, label 1 = from 1000 up to 3000, label 2 = 3000 and over

Consider the worked cases shown below.
1) O=C1C=CC(=O)O1 [Maleic anhydride, maleic anhydride] :: label 0
2) Cc1ccc(C(C)C)c(O)c1 [Thymol, 6-isopropyl-m-cresol] :: label 1

Prompt: Given O=CCCCC=O [Glutaraldehyde, qlutaraldehyde] , name the class its Amount of active Allergen remaining after deactivant treatment places it in.
Response: label 0

Prompt: Given C=CCc1cc(OC)c2c(c1OC)OCO2 [Parsley Camphor] , name the class its Amount of active Allergen remaining after deactivant treatment places it in.
Response: label 1

###

# study target: Der-f allergens (Dermatophagoides farinae, UniProt P16311)
# Construct: Dust is collected from Hoover™ vacuum cleaner bags and passed through a series of sieves down to 63 microns; from tissue; host or cells: house dust from vacuum cleaner bags, sieved to 63 microns
# Sequence (P16311 99-321): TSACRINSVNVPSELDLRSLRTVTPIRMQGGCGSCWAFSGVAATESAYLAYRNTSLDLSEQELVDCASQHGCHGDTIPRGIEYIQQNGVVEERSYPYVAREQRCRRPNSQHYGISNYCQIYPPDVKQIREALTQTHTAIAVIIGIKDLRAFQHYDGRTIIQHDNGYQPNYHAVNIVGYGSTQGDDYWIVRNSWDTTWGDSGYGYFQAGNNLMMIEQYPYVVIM
# Assay type: biochemical
Would you kindly list Ratio of remaining active allergen after Deactivant/Tannic Acid Treatment for each of these compounds?
Answers are plain numbers.

These recorded examples may help you get a feel for the data.
1. N=C(NCCCCCCNC(=N)NC(=N)Nc1ccc(Cl)cc1)NC(=N)Nc1ccc(Cl)cc1 :: 0.991
2. N.N.O=S(=O)(O)O [Ammonium sulphate, ammonium sulphate] :: 1.618

Moving on to another compound below.
Prompt: State measured Ratio of remaining active allergen after Deactivant/Tannic Acid Treatment of the compound CC(C)c1cccc(=O)c(O)c1 with Der-f allergens (Dermatophagoides farinae, UniProt P16311).
Response: 1.533
